B1: SMOC2 (parent)
chain: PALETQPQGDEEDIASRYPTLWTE

- Variants of: B1
- testSummary: protein stability index of a GFP-peptide fusion (GPS, HEK-293T) (PSI 1-6); higher = more stable;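 further: lentivirally expressed fusions sorted by FACS into six bins by GFP to DsRed ratio, PSI derived from sequencing read proportions per bin multiplied by bin number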
- experimentalParameters: c terminus: a fixed tail appended
Decide by protein stability index: equal to or exceeding 5 means 1.0, less means 0.0.

>  <mutationAnnotation>
I14K

>  <categoryLabel>
0.0

$$$$
>  <mutationAnnotation>
E11Y

>  <categoryLabel>
0.0

$$$$
>  <mutationAnnotation>
D10A

>  <categoryLabel>
0.0

$$$$

Hi team, for E12L , is the recorded protein stability index at or above 5? 0.0

Would you say L21I shows protein stability index at minimum 5? 1.0

Tell me whether protein stability index is at least 5 here: R17Y 0.0

Decide: protein stability index of A2L >= 5? 1.0
